This collection of values is drawn from patent US11987568B2.

molecular target: UniProt:P30291; test: ELISA based assay: WEE1 phosphorylation of biotinylated H2B peptide spanning Tyr37; assay type: biochemical; design: A full length human WEE1 kinase that was enzymatically active was purified from insect cell; conditions: Table 1; several values in a cell are repeat determinations
Sequence (P30291 whole entry): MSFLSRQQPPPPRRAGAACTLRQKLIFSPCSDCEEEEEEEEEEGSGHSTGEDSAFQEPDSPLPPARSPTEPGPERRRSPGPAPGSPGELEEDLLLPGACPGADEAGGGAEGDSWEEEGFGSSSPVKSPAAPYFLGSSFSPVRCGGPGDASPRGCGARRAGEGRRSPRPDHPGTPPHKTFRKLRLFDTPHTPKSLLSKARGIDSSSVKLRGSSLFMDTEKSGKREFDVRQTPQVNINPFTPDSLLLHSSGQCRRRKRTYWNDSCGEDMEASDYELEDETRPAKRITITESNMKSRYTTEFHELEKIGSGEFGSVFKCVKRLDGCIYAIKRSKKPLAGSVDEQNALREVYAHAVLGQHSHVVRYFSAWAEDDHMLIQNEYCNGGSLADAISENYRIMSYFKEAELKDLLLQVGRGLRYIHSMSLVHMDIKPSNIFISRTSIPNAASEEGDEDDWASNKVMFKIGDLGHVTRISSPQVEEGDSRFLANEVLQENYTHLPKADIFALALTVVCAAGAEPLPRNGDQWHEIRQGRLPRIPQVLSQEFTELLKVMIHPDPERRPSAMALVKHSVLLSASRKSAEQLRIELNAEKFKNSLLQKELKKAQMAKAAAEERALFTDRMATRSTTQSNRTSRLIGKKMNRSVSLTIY

[
  {
    "smiles.string": "Cc1cc(C(=O)NC2CCNCC2)c(C)cc1C(=O)NC1CCNCC1.Cl",
    "ELISA Inhibition (%)": 21
  },
  {
    "smiles.string": "Cc1cc(C(=O)Nc2ccc(CN)cc2)c(C)cc1C(=O)Nc1ccc(CN)cc1.Cl",
    "ELISA Inhibition (%)": 9
  },
  {
    "smiles.string": "Cc1cc(C(=O)NC2CCN(C(=O)OC(C)(C)C)CC2)c(C)cc1C(=O)NC1CCN(C(=O)OC(C)(C)C)CC1",
    "ELISA Inhibition (%)": 10
  },
  {
    "smiles.string": "CC(C)(C)OC(=O)Nc1ccc(CNC(=O)c2ccc(C(=O)NCc3ccc(NC(=O)OC(C)(C)C)cc3)o2)cc1",
    "ELISA Inhibition (%)": "−4"
  }
]
